Tested on: G. lamblia strain ATCC 30957
Protocol Text: Viability of Giardia lamblia trophozoite culture (trypan blue count)
Assay type: cell-based
Experimental Conditions: trophozoites ATCC 30957, 48 h, 37 °C; read-out: IC50 G. lamblia
IC50 by entry:
Quantity Measured: IC50 (µM)

1) CCCCOc1ccc(NC(=O)Nc2ncc([N+](=O)[O-])s2)cc1    11.1
2) Cc1ncc([N+](=O)[O-])n1CCO [MTZ, metronidazole, reference compound]    3.4

====

Tested on: HT-29 cells
Protocol Text: Cytotoxicity, XTT viability assay, HT-29
Experimental Conditions: read-out: CC50 HT-29; 48 h, XTT
Catalogue of compounds with associated CC50
Quantity Measured: CC50 (µM)

1. COc1cccc(C(=O)Nc2ncc([N+](=O)[O-])s2)c1    115
2. O=C(Nc1ncc([N+](=O)[O-])s1)c1cccc([N+](=O)[O-])c1    43.7

====

Protocol Text: Cytotoxicity, XTT viability assay, HT-29
Experimental Conditions: human, HT-29 cells, CC50 HT-29, 48 h, XTT
Quantity Measured: CC50 at 48 h

1) CCCCC(=O)Nc1ncc([N+](=O)[O-])s1 [FLP-2, N-(5-Nitro-1,3-thiazol-2-yl)pentanamide]    1910 µM
2) CCCCOc1ccc(NC(=O)Nc2ncc([N+](=O)[O-])s2)cc1 [CNZ-8]    622 µM
3) COc1cccc(C(=O)Nc2ncc([N+](=O)[O-])s2)c1 [FLP-6]    115 µM

====

Test system: Caco-2 and HT-29 cells
Protocol Text: Cytotoxicity, XTT viability assay, stated for both cell lines
Format: cell-based, human
Experimental Conditions: 125 µM, 48 h
Quantity Measured: Decrease of cell viability

1. O=C(Nc1ncc([N+](=O)[O-])s1)c1cccc([N+](=O)[O-])c1 [FLP-8]    ≤ 50%
2. CCCCC(=O)Nc1ncc([N+](=O)[O-])s1 [FLP-2, N-(5-Nitro-1,3-thiazol-2-yl)pentanamide]    up to 20%
3. CCCCOc1ccc(NC(=O)Nc2ncc([N+](=O)[O-])s2)cc1 [CNZ-8]    up to 20%
4. O=C(Nc1ccc([N+](=O)[O-])cc1)Nc1ncc([N+](=O)[O-])s1 [CNZ-7]    up to 20%

====

Protocol Text: Cytotoxicity, XTT viability assay, Caco-2
Experimental Conditions: human, Caco-2
If the reported selectivity ratio at 48 h equals or exceeds 500, assign True. If not, assign False.

1. O=C(Nc1ncc([N+](=O)[O-])s1)c1cccc([N+](=O)[O-])c1    False
2. COc1cccc(C(=O)Nc2ncc([N+](=O)[O-])s2)c1    True
3. O=C(Nc1ccc([N+](=O)[O-])cc1)Nc1ncc([N+](=O)[O-])s1    False
4. CCCCOc1ccc(NC(=O)Nc2ncc([N+](=O)[O-])s2)cc1    False
5. CC(=O)Oc1ccccc1C(=O)Nc1ncc([N+](=O)[O-])s1 [NTZ, nitazoxanide]    False
6. Cc1ncc([N+](=O)[O-])n1CCO [MTZ, metronidazole, reference compound]    False
7. CCCCC(=O)Nc1ncc([N+](=O)[O-])s1 [FLP-2, N-(5-Nitro-1,3-thiazol-2-yl)pentanamide]    True

====

System: Caco-2 cells
Protocol Text: Cytotoxicity, XTT viability assay, Caco-2
Experimental Conditions: read-out: CC50 Caco-2; 48 h, XTT
Quantity Measured: CC50 (µM)

1) COc1cccc(C(=O)Nc2ncc([N+](=O)[O-])s2)c1    178
